studySystem: UniProt:P41595
Sequence (P41595 whole entry): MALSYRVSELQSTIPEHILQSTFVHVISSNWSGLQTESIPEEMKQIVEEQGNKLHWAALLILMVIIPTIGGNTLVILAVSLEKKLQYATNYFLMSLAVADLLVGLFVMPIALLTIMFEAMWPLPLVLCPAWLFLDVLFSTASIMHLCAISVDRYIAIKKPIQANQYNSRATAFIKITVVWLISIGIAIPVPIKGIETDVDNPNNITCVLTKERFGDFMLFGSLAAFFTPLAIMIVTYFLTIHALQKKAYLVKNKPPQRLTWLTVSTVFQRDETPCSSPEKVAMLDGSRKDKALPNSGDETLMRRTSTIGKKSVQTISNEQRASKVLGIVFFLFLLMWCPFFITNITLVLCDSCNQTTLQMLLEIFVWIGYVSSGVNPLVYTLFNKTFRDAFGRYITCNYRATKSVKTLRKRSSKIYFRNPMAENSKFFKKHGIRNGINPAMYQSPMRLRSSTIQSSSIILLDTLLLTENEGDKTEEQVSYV
Mark condition met only when Ki stays strictly below 600 nM. Values equal to the cut-off are condition not met.

INPUT: Please check: Ki for CCCN1CCc2cc(OC)cc3c2[C@H]1Cc1cccc(OCc2ccc(F)cc2)c1-3 , strictly under 600 nM or not?
OUTPUT: condition not met

INPUT: Please check: Ki for COc1cc2c3c(c1)-c1c(cccc1OC(=O)c1ccc(F)cc1)C[C@H]3N(C)CC2 , strictly under 600 nM or not?
OUTPUT: condition met

INPUT: Please check: Ki for COc1cc2c3c(c1)-c1c(cccc1OCc1ccc(F)cc1)C[C@H]3N(C)CC2 , strictly under 600 nM or not?
OUTPUT: condition not met

INPUT: Please check: Ki for COc1cc2c3c(c1)-c1c(cccc1OCCCF)C[C@H]3N(C)CC2 , strictly under 600 nM or not?
OUTPUT: condition met

INPUT: Please check: Ki for CCCN1CCc2cc(OC)cc3c2[C@H]1Cc1cccc(OCCF)c1-3 , strictly under 600 nM or not?
OUTPUT: condition not met

INPUT: Please check: Ki for COc1cc2c3c(c1)-c1c(cccc1OCCF)C[C@H]3N(C)CC2 , strictly under 600 nM or not?
OUTPUT: condition met

INPUT: Please check: Ki for CCCN1CCc2cc(OC)cc3c2[C@H]1Cc1cccc(OC(=O)c2ccc(F)cc2)c1-3 , strictly under 600 nM or not?
OUTPUT: condition met

INPUT: Please check: Ki for CCCN1CCc2cc(OC)cc3c2[C@H]1Cc1cccc(OCCCF)c1-3 , strictly under 600 nM or not?
OUTPUT: condition not met

* * *

studySystem: 5-hydroxytryptamine receptor 2A (Homo sapiens, UniProt P28223)
Sequence (P28223 whole entry): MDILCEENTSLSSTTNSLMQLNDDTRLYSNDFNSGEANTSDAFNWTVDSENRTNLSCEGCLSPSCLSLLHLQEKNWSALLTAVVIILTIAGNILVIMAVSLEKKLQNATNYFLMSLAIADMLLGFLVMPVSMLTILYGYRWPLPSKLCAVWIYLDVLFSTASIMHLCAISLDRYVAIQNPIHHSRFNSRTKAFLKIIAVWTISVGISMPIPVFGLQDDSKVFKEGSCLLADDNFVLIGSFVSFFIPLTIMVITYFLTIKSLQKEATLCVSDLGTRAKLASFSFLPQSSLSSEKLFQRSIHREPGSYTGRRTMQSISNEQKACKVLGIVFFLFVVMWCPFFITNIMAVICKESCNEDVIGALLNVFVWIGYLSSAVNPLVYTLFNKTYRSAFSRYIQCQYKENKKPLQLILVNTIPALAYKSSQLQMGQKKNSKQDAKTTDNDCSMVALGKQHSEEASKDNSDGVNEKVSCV
pKi: −log10 of the molar value.
Hi there, I'd appreciate the recorded pKi for every entry that follows.

INPUT: Under 5-hydroxytryptamine receptor 2A (Homo sapiens, UniProt P28223): pKi value of CCCN1CCc2cc(OC)cc3c2[C@H]1Cc1cccc(OCc2ccc(F)cc2)c1-3 ?
OUTPUT: < 5.00

INPUT: Under 5-hydroxytryptamine receptor 2A (Homo sapiens, UniProt P28223): pKi value of CCCN1CCc2cc(OC)cc3c2[C@H]1Cc1cccc(OCCF)c1-3 ?
OUTPUT: < 5.00

INPUT: Under 5-hydroxytryptamine receptor 2A (Homo sapiens, UniProt P28223): pKi value of CCCN1CCc2cc(OC)cc3c2[C@H]1Cc1cccc(OCCCF)c1-3 ?
OUTPUT: < 5.00
